- assayed_target: HLA-A*02:01 (Homo sapiens, UniProt P04439, D140Y/D185E/D98H/E176V/E277Q/G131W/G231S/I119V/I121R/I166T/I218V/L300P/L318F/N151K/N90K/P208A/P217A/Q86G/Q94H/R138H/R169H/T345S)
- measurement_protocol: HLA-peptide competition binding assay, A*02:01
- test_settings: read-out: A*02:01 binding (IC50 nM) Modified
Where a SMILES comes first, the peptide text is derived from it. [ ]: non-standard residue; d: D form. Cya = N[C@@H](CS(=O)(=O)O)C(=O)O; Cit = NC(=O)NCCC[C@H](N)C(=O)O
observable: IC50 (nM)

Worked examples follow.
• CSCC[C@H](N)C(=O)N[C@@H](CCCNC(N)=O)C(=O)N[C@@H](CC(C)C)C(=O)N[C@@H](CC(C)C)C(=O)N1CCC[C@H]1C(=O)N[C@@H](CC(C)C)C(=O)N[C@@H](CC(C)C)C(=O)N[C@@H](C)C(=O)N[C@@H](CC(C)C)C(=O)N[C@@H](CC(C)C)C(=O)O (H-M[Cit]LLPLLALL-OH) = 98
• CC(C)C[C@H](NC(=O)[C@H](Cc1c[nH]cn1)NC(=O)[C@@H](N)CCC(N)=O)C(=O)N[C@@H](CS(=O)(=O)O)C(=O)NCC(=O)N[C@@H](CO)C(=O)N[C@@H](Cc1c[nH]cn1)C(=O)N[C@@H](CC(C)C)C(=O)N[C@H](C(=O)O)C(C)C [QHLBGSHLV] (H-QHL[Cya]GSHLV-OH) = 37900
• CC[C@H](C)[C@H](NC(=O)CNC(=O)[C@H](CCCNC(N)=O)NC(=O)[C@H](CCCCN)NC(=O)[C@H](CCC(N)=O)NC(=O)[C@H](CC(C)C)NC(=O)[C@H](CO)NC(=O)CN)C(=O)N[C@H](C(=O)N[C@@H](CCC(=O)O)C(=O)O)C(C)C [GSLQKUGIVE] (H-GSLQK[Cit]GIVE-OH) = 34500
• CSCC[C@H](N)C(=O)N[C@@H](CCCNC(N)=O)C(=O)N[C@@H](CC(C)C)C(=O)N[C@@H](CC(C)C)C(=O)N1CCC[C@H]1C(=O)N[C@@H](CC(C)C)C(=O)N[C@@H](CC(C)C)C(=O)N[C@@H](C)C(=O)N[C@@H](CC(C)C)C(=O)O [MULLPLLAL] (H-M[Cit]LLPLLAL-OH) = 1860
• CC(C)C[C@H](NC(=O)[C@H](C)NC(=O)[C@H](CC(C)C)NC(=O)[C@H](CC(C)C)NC(=O)[C@@H]1CCCN1C(=O)[C@H](CC(C)C)NC(=O)[C@H](CC(C)C)NC(=O)[C@@H](N)CCCNC(N)=O)C(=O)N[C@@H](CC(C)C)C(=O)N[C@@H](C)C(=O)O (H-[Cit]LLPLLALLA-OH) = 70

1. CC(C)C[C@H](NC(=O)[C@H](Cc1c[nH]cn1)NC(=O)[C@H](CO)NC(=O)CNC(=O)[C@H](CS(=O)(=O)O)NC(=O)[C@@H](N)CC(C)C)C(=O)N[C@H](C(=O)N[C@@H](CCC(=O)O)C(=O)N[C@@H](C)C(=O)O)C(C)C [LBGSHLVEA] (H-L[Cya]GSHLVEA-OH)
2. CC(C)[C@H](N)C(=O)N[C@@H](CS)C(=O)NCC(=O)N[C@@H](CCC(=O)O)C(=O)N[C@@H](CCCNC(N)=O)C(=O)NCC(=O)N[C@@H](Cc1ccccc1)C(=O)N[C@@H](Cc1ccccc1)C(=O)N[C@@H](Cc1ccc(O)cc1)C(=O)O (H-VCGE[Cit]GFFY-OH)
[Q] Response body: label of entry with the larger IC50; valid values 1 , 2 . # answer = label of selected item
[A] 2
(2: 33500 nM, 1: 14800 nM)
